Recorded MFI HisTag FITC values for a group of binders are listed next.
# tested_target: T1, CD19 (UniProt P15391 20-556, limits assumed)
# T1 construct: whole, on cells; also called CD19 on JeKo-1
# T1 sequence (looked up): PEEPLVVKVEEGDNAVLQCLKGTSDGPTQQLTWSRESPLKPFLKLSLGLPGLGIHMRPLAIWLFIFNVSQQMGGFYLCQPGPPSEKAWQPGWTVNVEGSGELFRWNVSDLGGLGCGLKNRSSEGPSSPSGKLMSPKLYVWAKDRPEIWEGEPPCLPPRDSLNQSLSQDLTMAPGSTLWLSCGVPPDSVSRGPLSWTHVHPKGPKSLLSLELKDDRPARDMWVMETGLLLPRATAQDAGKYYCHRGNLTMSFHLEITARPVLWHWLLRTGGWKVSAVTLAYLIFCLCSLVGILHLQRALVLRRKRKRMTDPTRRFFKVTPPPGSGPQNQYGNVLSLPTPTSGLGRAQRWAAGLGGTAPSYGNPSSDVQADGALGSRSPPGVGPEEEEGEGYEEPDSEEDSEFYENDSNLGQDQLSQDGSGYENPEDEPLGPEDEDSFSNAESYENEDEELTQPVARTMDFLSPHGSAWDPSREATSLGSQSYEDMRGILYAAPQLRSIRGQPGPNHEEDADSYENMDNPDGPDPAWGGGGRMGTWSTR
# method_notes: flow cytometry, JeKo-1 cells, bridge at saturating conc., anti-His-FITC detection
Provide a numeric answer; units are not to be included.

The examples below pair each entry with its known result.
>>> observed_value("CD19 BRIDGE variant B1 (Fab, V domains shown) VH: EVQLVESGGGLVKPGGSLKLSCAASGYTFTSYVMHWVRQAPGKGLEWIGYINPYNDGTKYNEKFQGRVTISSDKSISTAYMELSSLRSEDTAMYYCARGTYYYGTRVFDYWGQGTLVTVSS VL: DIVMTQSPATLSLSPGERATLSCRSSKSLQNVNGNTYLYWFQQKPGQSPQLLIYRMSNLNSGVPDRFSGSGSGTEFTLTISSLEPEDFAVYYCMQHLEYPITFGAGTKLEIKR")
3.21
>>> observed_value("CD19 BRIDGE variant B7 (Fab, V domains shown) VH: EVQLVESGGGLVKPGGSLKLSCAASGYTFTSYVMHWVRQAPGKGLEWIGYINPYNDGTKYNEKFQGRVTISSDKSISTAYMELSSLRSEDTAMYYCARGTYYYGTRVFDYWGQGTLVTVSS VL: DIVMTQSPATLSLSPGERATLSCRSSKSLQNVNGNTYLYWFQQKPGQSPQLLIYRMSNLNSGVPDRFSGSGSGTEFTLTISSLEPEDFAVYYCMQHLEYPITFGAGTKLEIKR")
3.31

Quick one: MFI HisTag FITC for CD19 BRIDGE variant B25 (Fab, V domains shown) VH: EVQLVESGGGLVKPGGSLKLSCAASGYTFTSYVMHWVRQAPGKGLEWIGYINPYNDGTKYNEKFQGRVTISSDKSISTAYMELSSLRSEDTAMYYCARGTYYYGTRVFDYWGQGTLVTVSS VL: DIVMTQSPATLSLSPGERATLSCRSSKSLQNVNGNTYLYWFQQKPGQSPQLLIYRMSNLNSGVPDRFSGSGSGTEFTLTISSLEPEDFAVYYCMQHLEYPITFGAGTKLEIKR ?
2.32
